- Test system: 379773-124-R-J2-PDC complex spheroids, viability % test/control;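 further: compound exposure lasted seven days before the viability readout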
- assayMethodText: Anticancer human tumor 379773-124-R-J2-PDC patient-derived endometrial carcinoma cell line growth inhibition [CLK]; active means viability on the fitted dose curve at most 10% of control; inactive means the rest
- reportedConditions: second compound 10 µM; first compound 1 µM
// classify into active, inactive

[Q] Write down the call the test reported for this compound. Item: COc1cccc2c1C(=O)c1c(O)c3c(c(O)c1C2=O)CC(O)(C(=O)CO)CC3OC1CC(N)C(O)C(C)O1 (stereo not given) + CN1CCN(c2cc(C(=O)Nc3cc4cc(-c5cnn(C)c5)ccc4cn3)ccn2)CC1
[A] active

[Q] Write down the call the test reported for this compound. Item: CC1(C)CCC(CN2CCN(c3ccc(C(=O)NS(=O)(=O)c4ccc(NCC5CCOCC5)c([N+](=O)[O-])c4)c(Oc4cnc5[nH]ccc5c4)c3)CC2)=C(c2ccc(Cl)cc2)C1 + CNC(=O)c1ccc(Nc2nc(OC3CCCC3)c3c(-c4ccc5nc(C)oc5c4)c[nH]c3n2)c(OC)c1
[A] inactive

[Q] Write down the call the test reported for this compound. Item: O=c1[nH]cc(F)c(=O)[nH]1 + CN1CCN(c2cc(C(=O)Nc3cc4cc(-c5cnn(C)c5)ccc4cn3)ccn2)CC1
[A] active

[Q] Write down the call the test reported for this compound. Item: C=CC(=O)N1CCN(c2nc(=O)n(-c3c(C)ccnc3C(C)C)c3nc(-c4c(O)cccc4F)c(F)cc23)C(C)C1 (stereo not given) + CNC(=O)c1ccc(Nc2nc(OC3CCCC3)c3c(-c4ccc5nc(C)oc5c4)c[nH]c3n2)c(OC)c1
[A] inactive

[Q] Write down the call the test reported for this compound. Item: COc1c(OCCCN2CCOCC2)ccc2c3n(c(=NC(=O)c4cnc(N)nc4)nc12)CCN3 + CNC(=O)c1ccc(Nc2nc(OC3CCCC3)c3c(-c4ccc5nc(C)oc5c4)c[nH]c3n2)c(OC)c1
[A] active

[Q] Write down the call the test reported for this compound. Item: C=C(F)C(=O)N1CCN(c2nc(OCC3CCCN3C)nc3c2CCN(c2cccc4cccc(Cl)c24)C3)CC1CC#N (stereo not given) + CNC(=O)c1ccc(Nc2nc(OC3CCCC3)c3c(-c4ccc5nc(C)oc5c4)c[nH]c3n2)c(OC)c1
[A] inactive

[Q] Write down the call the test reported for this compound. Item: CCCS(=O)(=O)Nc1ccc(F)c(C(=O)c2c[nH]c3ncc(-c4ccc(Cl)cc4)cc23)c1F + CN1CCN(c2cc(C(=O)Nc3cc4cc(-c5cnn(C)c5)ccc4cn3)ccn2)CC1
[A] active

[Q] Write down the call the test reported for this compound. Item: CCc1c2c(nc3ccc(O)cc13)-c1cc3c(c(=O)n1C2)COC(=O)[C@]3(O)CC + CNC(=O)c1ccc(Nc2nc(OC3CCCC3)c3c(-c4ccc5nc(C)oc5c4)c[nH]c3n2)c(OC)c1
[A] active

[Q] Write down the call the test reported for this compound. Item: Nc1ccccc1NC(=O)c1ccc(CNC(=O)OCc2cccnc2)cc1 + CN1CCN(c2cc(C(=O)Nc3cc4cc(-c5cnn(C)c5)ccc4cn3)ccn2)CC1
[A] active

[Q] Write down the call the test reported for this compound. Item: CC(=O)O[C@H]1C(=O)[C@@]2(C)[C@H]([C@H](OC(=O)c3ccccc3)[C@]3(O)C[C@H](OC(=O)[C@H](O)[C@@H](NC(=O)c4ccccc4)c4ccccc4)C(C)=C1C3(C)C)[C@]1(OC(C)=O)CO[C@@H]1C[C@@H]2O + CN1CCN(c2cc(C(=O)Nc3cc4cc(-c5cnn(C)c5)ccc4cn3)ccn2)CC1
[A] active

[Q] Write down the call the test reported for this compound. Item: COC1C=CCC(C)C(C)S(=O)(=O)NC(=O)c2ccc3c(c2)N(CC2CCC21)CC1(CCCc2cc(Cl)ccc21)CO3 (stereo not given) + CN1CCN(c2cc(C(=O)Nc3cc4cc(-c5cnn(C)c5)ccc4cn3)ccn2)CC1
[A] active

[Q] Write down the call the test reported for this compound. Item: CC(Nc1ccc2c(c1)OCCn1cc(N3C(=O)OCC3C(F)F)nc1-2)C(N)=O (stereo not given) + CN1CCN(c2cc(C(=O)Nc3cc4cc(-c5cnn(C)c5)ccc4cn3)ccn2)CC1
[A] active

[Q] Write down the call the test reported for this compound. Item: Nc1ccn(C2OC(CO)C(O)C2(F)F)c(=O)n1 (stereo not given) + CNC(=O)c1ccc(Nc2nc(OC3CCCC3)c3c(-c4ccc5nc(C)oc5c4)c[nH]c3n2)c(OC)c1
[A] active

[Q] Write down the call the test reported for this compound. Item: COc1ccc([C@@H](O)c2cc(-c3ncnc4cc(N5CCOCC5)ccc34)c(F)cc2Cl)nn1 + CN1CCN(c2cc(C(=O)Nc3cc4cc(-c5cnn(C)c5)ccc4cn3)ccn2)CC1
[A] active

[Q] Write down the call the test reported for this compound. Item: CC1(C)CCC(CN2CCN(c3ccc(C(=O)NS(=O)(=O)c4ccc(NCC5CCOCC5)c([N+](=O)[O-])c4)c(Oc4cnc5[nH]ccc5c4)c3)CC2)=C(c2ccc(Cl)cc2)C1 + CN1CCN(c2cc(C(=O)Nc3cc4cc(-c5cnn(C)c5)ccc4cn3)ccn2)CC1
[A] active

[Q] Write down the call the test reported for this compound. Item: CCCS(=O)(=O)Nc1ccc(F)c(C(=O)c2c[nH]c3ncc(-c4ccc(Cl)cc4)cc23)c1F + CNC(=O)c1ccc(Nc2nc(OC3CCCC3)c3c(-c4ccc5nc(C)oc5c4)c[nH]c3n2)c(OC)c1
[A] inactive

[Q] Write down the call the test reported for this compound. Item: CC(=O)O[C@H]1C(=O)[C@@]2(C)[C@H]([C@H](OC(=O)c3ccccc3)[C@]3(O)C[C@H](OC(=O)[C@H](O)[C@@H](NC(=O)c4ccccc4)c4ccccc4)C(C)=C1C3(C)C)[C@]1(OC(C)=O)CO[C@@H]1C[C@@H]2O + CNC(=O)c1ccc(Nc2nc(OC3CCCC3)c3c(-c4ccc5nc(C)oc5c4)c[nH]c3n2)c(OC)c1
[A] inactive

[Q] Write down the call the test reported for this compound. Item: CC1COCCN1c1cc(C2(S(C)(=N)=O)CC2)nc(-c2ccnc3[nH]ccc23)n1 (stereo not given) + CN1CCN(c2cc(C(=O)Nc3cc4cc(-c5cnn(C)c5)ccc4cn3)ccn2)CC1
[A] active

[Q] Write down the call the test reported for this compound. Item: Nc1ccn(C2OC(CO)C(O)C2(F)F)c(=O)n1 (stereo not given) + CN1CCN(c2cc(C(=O)Nc3cc4cc(-c5cnn(C)c5)ccc4cn3)ccn2)CC1
[A] active

[Q] Write down the call the test reported for this compound. Item: O=C(c1cc(Cc2n[nH]c(=O)c3ccccc23)ccc1F)N1CCN(C(=O)C2CC2)CC1 + CN1CCN(c2cc(C(=O)Nc3cc4cc(-c5cnn(C)c5)ccc4cn3)ccn2)CC1
[A] active
